test system: OVCAR-3 ovarian; assay: NCI-60 one-dose screen, 48 h; details: 10 µM unless noted
About 83,000 compounds went through this panel and 20% of them were active in at least one assay; those are over-represented in the sample as a whole. The source made the active and inactive calls. How the source made its calls: active means growth percent below 10; inactive means the rest.
Labels: active, inactive

[[record]]
compound = "FC(F)(F)c1nc2c(NCc3ccc(-c4ccccc4)cc3)cccc2[nH]1"
label_class = "inactive"

[[record]]
compound = "CC1=CC(C)(C)Nc2ccc(Cc3ccc4c(c3)C(C)=CC(C)(C)N4)cc21"
label_class = "inactive"

[[record]]
compound = "Cc1oc(-c2ccc(Cl)cc2Cl)cc1C(=O)Nc1nccs1"
label_class = "inactive"

[[record]]
compound = "C/C1=C\\CC[C@@]2(C)O[C@H]2[C@H]2OC(=O)C(CN3CCN(CC4C(=O)O[C@H]5[C@H]4CC/C(C)=C/CC[C@@]4(C)O[C@@H]54)CC3)[C@@H]2CC1 (some centres undefined)"
label_class = "inactive"

[[record]]
compound = "CCCOc1cc2ccccc2cc1C(=O)Nc1nc(N)c2c(ccc3nccc32)[nH]1"
label_class = "active"

[[record]]
compound = "COc1cc(/C=C/C(=O)c2c(C)oc3nc[nH]c(=O)c23)cc(OC)c1OC"
label_class = "inactive"

[[record]]
compound = "CCNc1ncnc2c1cnn2C1CCCO1 (centres undefined)"
label_class = "inactive"

[[record]]
compound = "CCOc1cc2ncc(C#N)c(Nc3ccc(F)c(Cl)c3)c2cc1NC(=O)CC1CCSS1 (centres undefined)"
label_class = "active"

[[record]]
compound = "CC[C@@H]1O[C@H](O[C@@H](c2cnc[nH]2)[C@H](NC(=O)c2nc([C@H](CC(N)=O)NC[C@@H](N)C(N)=O)nc(N)c2C)C(=O)N[C@H](C)[C@H](O)[C@H](C)C(=O)N[C@@H](C(=O)NCCc2nc(-c3nc(C(=O)NCCCCN=C(N)N)cs3)cs2)[C@@H](C)O)[C@H](O[C@@H]2O[C@H](CO)[C@H](O)[C@H](OC(N)=O)[C@@H]2O)[C@H](C)[C@@H]1C"
label_class = "inactive"


====

system: TK-10 renal; experiment: NCI-60 one-dose screen, 48 h; conditions: 10 µM unless noted
Compounds without any hit were thinned out: in the full panel of roughly 83,000, 20% have a hit. Active and inactive are the calls of the source. How the source made its calls: active means growth percent below 10; inactive means the rest.
Labels: active, inactive

[[record]]
smiles_input = "O=C(COc1ccc(/C=C2\\CSc3ccccc3C2=O)cc1)Nc1nccs1"
label_class = "inactive"

[[record]]
smiles_input = "CNC(=O)c1cc(Oc2ccc(NC(=O)Nc3ccc(Cl)c(OC(F)(F)F)c3)c(F)c2)ccn1"
label_class = "inactive"

[[record]]
smiles_input = "COc1cc2nc(N3CCCC3)nc(Nc3ccccc3)c2cc1OC"
label_class = "inactive"

[[record]]
smiles_input = "O=C1/C(=C/c2ccc(Cl)cc2)SC(=S)N1CCc1ccc(O)cc1"
label_class = "inactive"

[[record]]
smiles_input = "Cn1cccc1-c1nc2c3c(ccc2[nH]1)C(=O)c1ccccc1C3=O"
label_class = "inactive"

[[record]]
smiles_input = "OCCNc1nccc(N2CCN(c3ccnc4cc(Cl)ccc34)CC2)n1"
label_class = "inactive"

[[record]]
smiles_input = "COc1ccc(/C=C/c2nc3ccccc3nc2/C=C/c2ccc(OC)cc2)cc1"
label_class = "inactive"

[[record]]
smiles_input = "COc1ccc(C(=O)COc2cccc(/C=C3\\CSc4ccccc4C3=O)c2)cc1"
label_class = "active"

[[record]]
smiles_input = "COc1ccc(S(=O)(=O)N2CC3(COC3)C2)cc1NC(=O)c1[nH]c(C)c2c1CCCCC2=O"
label_class = "inactive"

[[record]]
smiles_input = "O=c1ccccc(-c2ccc(Br)cc2)c1O"
label_class = "inactive"

[[record]]
smiles_input = "CC(=O)OCCC/C(=C/c1cc2ccccc2c2ccccc12)[N+](=O)[O-]"
label_class = "active"

[[record]]
smiles_input = "Cc1ccccc1COc1ccc(-c2ccnn2-c2ccc(Cl)cc2)cc1"
label_class = "inactive"


====

system: HOP-62 NSCLC; assay: NCI-60 one-dose screen, 48 h; conditions: 10 µM unless noted
About 83,000 compounds went through this panel and 20% of them were active in at least one assay; those are over-represented in the sample as a whole. The source made the active and inactive calls. How the source made its calls: active means growth percent below 10; inactive means the rest.
Outcome codes: class 1 (active), class 0 (inactive)

[[record]]
molecule = "C=CC(=O)Nc1cccc(-c2nc(SC)nc(NCCc3ccc(OC)c(OC)c3)c2C#N)c1"
label_class = "class 0"

[[record]]
molecule = "Cn1c(NCCc2ccc(O)c(O)c2)nc2c1c(=O)n(Cc1ccc(Cl)c(Cl)c1)c(=O)n2C"
label_class = "class 0"

[[record]]
molecule = "CC(O)CN(CC(C)O)c1ccc2c(c1)Cc1cc([N+](=O)[O-])ccc1-2 (configuration not stated)"
label_class = "class 0"

[[record]]
molecule = "COc1ccc(O)c(N=Nc2nccs2)c1"
label_class = "class 0"

[[record]]
molecule = "CSc1ccc(-c2n[nH]nc2-c2cc3ccccc3s2)cc1"
label_class = "class 0"

[[record]]
molecule = "Cn1cc(C(=O)c2nc(-c3c[nH]c4ccc(F)cc34)no2)c2cc(F)ccc21"
label_class = "class 0"

[[record]]
molecule = "CC(=O)Oc1ccc(Cl)cc1CN(C(C)=O)C1CCCCC1"
label_class = "class 0"

[[record]]
molecule = "O=C1/C(=C/c2cn(-c3ccccc3)nc2-c2ccccc2)SC(=S)N1CCc1ccccc1"
label_class = "class 0"

[[record]]
molecule = "O=C(Cc1ccc(/C=C/C(=O)c2ncc[nH]2)cc1)Nc1ccc(F)cc1"
label_class = "class 0"

[[record]]
molecule = "Cc1cn2c(/C=C3/C(=O)Nc4c3ccc3ccccc43)c(C(F)(F)F)nc2s1"
label_class = "class 0"

[[record]]
molecule = "Cc1nn(-c2ccc(F)cc2)c2ncnc(Nc3ccc(NC(=O)Nc4ccc(Cl)c(C(F)(F)F)c4)cc3)c12"
label_class = "class 0"

[[record]]
molecule = "CC[N+](CC)=c1sc2c(s1)C(c1ccc(Cl)cc1)Oc1ccc(Cl)cc1-2 (configuration not stated)"
label_class = "class 0"

[[record]]
molecule = "O=C1/C(=C/c2ccccc2O)N=C2SCCCN12"
label_class = "class 0"

[[record]]
molecule = "Cc1c(/C=C/[N+](=O)[O-])ccc2c1[nH]c1ccccc12"
label_class = "class 0"

[[record]]
molecule = "CN(C)c1ccc(NC(=O)c2ccc(/C=C/C(=O)c3ncc[nH]3)cc2)cc1"
label_class = "class 0"

[[record]]
molecule = "COc1cc(-c2nc3ccccc3[nH]2)ccc1OCC(=O)N=Nc1c(O)[nH]c2ccc(Cl)cc12"
label_class = "class 1"

[[record]]
molecule = "COc1ccc(C(=O)c2sc3nc(C)cc(C)c3c2N)cc1OC"
label_class = "class 0"

[[record]]
molecule = "COc1ccc(C(=O)c2sc3nc4c(c(-c5cccnc5)c3c2N)CCCC4)cc1OC"
label_class = "class 0"

[[record]]
molecule = "Cc1cc(C)nc(SC2=C(Nc3ccc(C)c(Cl)c3)C(=O)N(Cc3ccccc3)C2=O)n1"
label_class = "class 0"

[[record]]
molecule = "COc1cc(-c2nc3ccccc3[nH]2)ccc1OCc1nnc(-c2ccc(CC(C)C)cc2)o1"
label_class = "class 0"

[[record]]
molecule = "COc1cc(-c2nn(C)nc2-c2cc3ccccc3s2)cc(OC)c1OC"
label_class = "class 0"

[[record]]
molecule = "Cc1cc(N2CCOCC2)nc(NCc2cc(Nc3ccnc4cc(Cl)ccc34)ccc2F)n1"
label_class = "class 1"

[[record]]
molecule = "CN(C)[C@@H]1C(=O)C(C(=O)NCc2nc3[nH]cnc(=S)c3[nH]2)=C(O)[C@@]2(O)C(=O)C3=C(O)c4c(O)cccc4[C@@](C)(O)[C@H]3C[C@@H]12"
label_class = "class 0"

[[record]]
molecule = "CC(=O)c1cc2c(N)c(C(=O)Nc3cccc4ccccc34)sc2nc1C"
label_class = "class 0"

[[record]]
molecule = "CN1CCN(c2ccc3nc(-c4ccc(OCCCCN5CCN(CCCCN6C(=O)c7cccc8cccc(c78)C6=O)CC5)cc4)[nH]c3c2)CC1"
label_class = "class 0"

[[record]]
molecule = "CC(=O)O[C@H]1CC[C@]2(C)[C@H]3CC=C4[C@@H]5CC(C)(C)CC[C@]5(C(=O)NCCNCCN)CC[C@@]4(C)[C@]3(C)CC[C@H]2C1(C)C"
label_class = "class 1"

[[record]]
molecule = "O=C(Cc1ccccc1Nc1c(Cl)cccc1Cl)NN1C(=O)/C(=C/c2ccc(Br)cc2)SC1=S"
label_class = "class 0"

[[record]]
molecule = "Cc1cc(N2CCN(c3ccnc4cc(Cl)ccc34)CC2)nc(N2CCOCC2)n1"
label_class = "class 0"

[[record]]
molecule = "NC(N)=N/N=C(/c1ccccc1)c1ccc(F)cc1"
label_class = "class 0"

[[record]]
molecule = "Cc1ccc(O)c(N2C(=NCc3ccco3)NS(=O)(=O)c3cnccc32)c1"
label_class = "class 0"

[[record]]
molecule = "CCCSc1ccc2nc(NC(=O)OC)[nH]c2c1"
label_class = "class 0"

[[record]]
molecule = "CCOC(=O)c1sc2nc(-c3cccc(OC)c3)nc(N3CCOCC3)c2c1C"
label_class = "class 0"

